study-target: AR protein (Homo sapiens, UniProt P10275, T878A)
Construct: degradation activity of the compounds disclosed in the present disclosure on AR protein in LNCaP cells; host or cells: LNCaP FGC
Sequence (P10275 1-920 T878A): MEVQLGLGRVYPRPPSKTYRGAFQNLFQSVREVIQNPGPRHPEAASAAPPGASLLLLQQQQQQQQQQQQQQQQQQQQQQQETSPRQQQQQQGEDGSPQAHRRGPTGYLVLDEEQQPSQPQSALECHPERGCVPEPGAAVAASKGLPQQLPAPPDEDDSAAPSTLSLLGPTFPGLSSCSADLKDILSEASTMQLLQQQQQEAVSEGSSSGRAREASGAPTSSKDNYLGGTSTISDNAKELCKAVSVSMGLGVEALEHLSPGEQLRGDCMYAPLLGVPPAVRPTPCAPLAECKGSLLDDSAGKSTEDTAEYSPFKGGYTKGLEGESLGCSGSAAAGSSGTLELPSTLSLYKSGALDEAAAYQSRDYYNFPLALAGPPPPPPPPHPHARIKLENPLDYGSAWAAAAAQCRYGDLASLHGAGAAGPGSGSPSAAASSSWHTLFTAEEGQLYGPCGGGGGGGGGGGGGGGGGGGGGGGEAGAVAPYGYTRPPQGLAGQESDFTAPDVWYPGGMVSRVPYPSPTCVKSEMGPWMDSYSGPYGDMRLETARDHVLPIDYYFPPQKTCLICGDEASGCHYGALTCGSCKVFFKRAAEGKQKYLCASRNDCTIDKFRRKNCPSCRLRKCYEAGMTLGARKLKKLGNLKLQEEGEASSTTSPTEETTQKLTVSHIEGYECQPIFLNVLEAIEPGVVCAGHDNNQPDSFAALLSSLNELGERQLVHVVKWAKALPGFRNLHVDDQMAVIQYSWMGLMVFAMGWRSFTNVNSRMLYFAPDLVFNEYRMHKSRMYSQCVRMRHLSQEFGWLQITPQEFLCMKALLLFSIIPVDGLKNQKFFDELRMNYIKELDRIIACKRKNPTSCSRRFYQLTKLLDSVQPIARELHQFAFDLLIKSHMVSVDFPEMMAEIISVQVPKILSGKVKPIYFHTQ
experiment-summary: Degradation of AR protein in LNCaP cells (Western blot)
Type: cell-based
condition-description: LNCaP cells, compound 100 nM, 8 hours, Western blot grayscale, GAPDH internal reference; read-out: Degradation rates of the AR protein in LNCaP cells, 100 nM (%)
observed-property: inhibition at 0.1 µM (%)

[[record]]
compound = "COc1cc(O[C@H]2C(C)(C)[C@H](NC(=O)c3ccc(N4CCC(C)(CN5CC6(CCc7cc8c(cc7O6)C(=O)N(C6CCC(=O)NC6=O)C8)C5)CC4)cc3)C2(C)C)ccc1C#N (stereo partly shown)"
study_target = "AR protein (Homo sapiens, UniProt P10275, T878A)"
measurement = 61

[[record]]
compound = "N#Cc1ccc(O[C@H]2CC[C@H](NC(=O)c3ccc(N4CCC(CN5CCC6(CC5)COc5cc7c(cc56)C(=O)N(C5CCC(=O)NC5=O)C7=O)CC4)nn3)CC2)cc1Cl (stereo partly shown)"
study_target = "AR protein (Homo sapiens, UniProt P10275, T878A)"
measurement = 77

[[record]]
compound = "CC1(CN2CCC3(CC2)COc2c3ccc3c2CN(C2CCC(=O)NC2=O)C3=O)CCN(c2ccc(C(=O)N[C@H]3C(C)(C)[C@H](Oc4ccc(C#N)c(Cl)c4)C3(C)C)cc2)CC1 (stereo partly shown)"
study_target = "AR protein (Homo sapiens, UniProt P10275, T878A)"
measurement = 75

[[record]]
compound = "N#Cc1ccc(O[C@H]2CC[C@H](NC(=O)c3ccc(N4CCC(N5CCC(C(=O)N6CCC7(CC6)COc6c7ccc7c6CN(C6CCC(=O)NC6=O)C7=O)CC5)CC4)nn3)CC2)cc1Cl (stereo partly shown)"
study_target = "AR protein (Homo sapiens, UniProt P10275, T878A)"
measurement = 76


====

study-target: AR protein (Homo sapiens)
Construct: degradation activity of the compounds disclosed in the present disclosure on AR protein in VCaP cells; host or cells: VCaP
experiment-summary: Degradation of AR protein in VCaP cells (Western blot)
Type: cell-based
condition-description: compound at 10 nM, 8 hours, read-out: Degradation rate of the AR protein in VCaP cells, 10 nM (%)
observed-property: inhibition at 0.01 µM (%)

[[record]]
molecule = "N#Cc1ccc(O[C@H]2CC[C@H](NC(=O)c3ccc(N4CCC5(CC4)CC(N4CCC6(CC4)COc4cc7c(cc4C6)C(=O)N(C4CCC(=O)NC4=O)C7=O)C5)nn3)CC2)cc1Cl (stereo partly shown)"
measurement = 54

[[record]]
molecule = "N#Cc1ccc(O[C@H]2CC[C@H](NC(=O)c3ccc(C#Cc4ccc(N5CCC6(CC5)COc5c6ccc6c5CN(C5CCC(=O)NC5=O)C6=O)nc4)nn3)CC2)cc1Cl (stereo partly shown)"
measurement = 11

[[record]]
molecule = "COc1cc(O[C@H]2CC[C@H](NC(=O)c3ccc(N4CCC(F)(CN5CC6(CCc7cc8c(cc7O6)CN(C6CCC(=O)NC6=O)C8=O)C5)CC4)nn3)CC2)ccc1C#N (stereo partly shown)"
measurement = 39

[[record]]
molecule = "N#Cc1ccc(O[C@H]2CC[C@H](NC(=O)c3ccc(N4CC(N5CCC6(CC5)COc5c(ccc7c5C(=O)N(C5CCC(=O)NC5=O)C7)C6)C4)nn3)CC2)cc1Cl (stereo partly shown)"
measurement = 31

[[record]]
molecule = "N#Cc1ccc(O[C@H]2CC[C@H](NC(=O)c3ccc(N4CC5(CCC(N6CCC7(CC6)COc6c7ccc7c6CN(C6CCC(=O)NC6=O)C7=O)CC5)C4)nn3)CC2)cc1Cl (stereo partly shown)"
measurement = 76

[[record]]
molecule = "N#Cc1ccc(O[C@H]2CC[C@H](NC(=O)c3ccc(N4CCC5(CCC(N6CCC7(CCc8ccc9c(c8O7)CN(C7CCC(=O)NC7=O)C9=O)CC6)CC5)CC4)nn3)CC2)cc1Cl (stereo partly shown)"
measurement = 65

[[record]]
molecule = "COC1(CN2CCC3(CCc4ccc5c(c4O3)CN(C3CCC(=O)NC3=O)C5=O)CC2)CCN(c2ccc(C(=O)N[C@H]3CC[C@H](Oc4ccc(C#N)c(Cl)c4)CC3)nn2)CC1 (stereo partly shown)"
measurement = 33


====

study-target: AR protein (Homo sapiens, UniProt P10275, T878A)
Construct: degradation activity of the compounds disclosed in the present disclosure on AR protein in LNCaP cells; host or cells: LNCaP FGC
Sequence (P10275 1-920 T878A): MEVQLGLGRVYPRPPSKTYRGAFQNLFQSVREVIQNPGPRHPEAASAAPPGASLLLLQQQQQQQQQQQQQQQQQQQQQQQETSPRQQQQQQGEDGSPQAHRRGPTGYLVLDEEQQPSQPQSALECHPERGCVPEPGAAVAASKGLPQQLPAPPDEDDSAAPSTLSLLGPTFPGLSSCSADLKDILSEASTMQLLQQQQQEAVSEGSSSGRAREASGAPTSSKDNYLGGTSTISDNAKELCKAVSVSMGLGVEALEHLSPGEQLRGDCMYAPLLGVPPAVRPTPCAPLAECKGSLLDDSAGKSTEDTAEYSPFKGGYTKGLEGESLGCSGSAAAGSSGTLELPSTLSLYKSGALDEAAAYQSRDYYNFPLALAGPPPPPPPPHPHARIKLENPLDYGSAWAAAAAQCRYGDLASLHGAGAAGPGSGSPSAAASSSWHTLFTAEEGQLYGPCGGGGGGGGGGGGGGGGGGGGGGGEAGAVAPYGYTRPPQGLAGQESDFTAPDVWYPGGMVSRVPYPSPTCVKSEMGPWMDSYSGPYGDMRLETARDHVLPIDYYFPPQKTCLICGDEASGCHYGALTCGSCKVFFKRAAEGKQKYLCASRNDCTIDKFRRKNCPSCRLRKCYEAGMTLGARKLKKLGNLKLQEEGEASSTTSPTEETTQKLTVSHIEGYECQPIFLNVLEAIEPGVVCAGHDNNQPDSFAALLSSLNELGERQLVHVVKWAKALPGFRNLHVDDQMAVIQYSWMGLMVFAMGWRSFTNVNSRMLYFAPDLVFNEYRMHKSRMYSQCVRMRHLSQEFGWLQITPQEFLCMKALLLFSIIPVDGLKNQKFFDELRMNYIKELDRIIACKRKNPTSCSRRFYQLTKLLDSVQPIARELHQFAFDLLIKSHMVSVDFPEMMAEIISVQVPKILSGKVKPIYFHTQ
experiment-summary: Degradation of AR protein in LNCaP cells (Western blot)
Type: cell-based
condition-description: LNCaP cells, compound 10 nM, 8 hours, Western blot grayscale, GAPDH internal reference; read-out: Degradation rates of the AR protein in LNCaP cells, 10 nM (%)
Here, each record is paired with measured inhibition at 0.01 µM data.
observed-property: inhibition at 0.01 µM (%)

[[record]]
molecule = "N#Cc1ccc(O[C@H]2CC[C@H](NC(=O)c3ccc(N4CC5(CCC(N6CCC7(CC6)COc6cc8c(cc67)C(=O)N(C6CCC(=O)NC6=O)C8=O)CC5)C4)nn3)CC2)cc1Cl (stereo partly drawn) [Compound 53]"
study_target = "AR protein (Homo sapiens, UniProt P10275, T878A)"
measurement = 69

[[record]]
molecule = "COc1cc(O[C@H]2C(C)(C)[C@H](NC(=O)c3ccc(N4CCC(F)(CN5CCC6(CCc7cc8c(cc7O6)C(=O)N(C6CCC(=O)NC6=O)C8=O)CC5)CC4)cc3)C2(C)C)ccc1C#N (stereo partly drawn) [Compound 270]"
study_target = "AR protein (Homo sapiens, UniProt P10275, T878A)"
measurement = 47

[[record]]
molecule = "N#Cc1ccc(O[C@H]2CC[C@H](NC(=O)c3ccc(C#CC4CCC(N5CCC6(CC5)COc5c6ccc6c5CN(C5CCC(=O)NC5=O)C6=O)CC4)nc3)CC2)cc1Cl (stereo partly drawn) [Compound 235]"
study_target = "AR protein (Homo sapiens, UniProt P10275, T878A)"
measurement = 39

[[record]]
molecule = "N#Cc1ccc(O[C@H]2CC[C@H](NC(=O)c3ccc(N4CC(CN5CCC6(CCc7cc8c(cc7O6)C(=O)N(C6CCC(=O)NC6=O)C8=O)CC5)C4)nn3)CC2)cc1Cl (stereo partly drawn) [Compound 20]"
study_target = "AR protein (Homo sapiens, UniProt P10275, T878A)"
measurement = 13

[[record]]
molecule = "N#Cc1ccc(O[C@H]2CC[C@H](NC(=O)c3ccc(N4CC5(CC(N6CCC7(CCc8cc9c(cc8O7)C(=O)N(C7CCC(=O)NC7=O)C9=O)CC6)C5)C4)nn3)CC2)cc1Cl (stereo partly drawn) [Compound 32]"
study_target = "AR protein (Homo sapiens, UniProt P10275, T878A)"
measurement = 22

[[record]]
molecule = "N#Cc1ccc(O[C@H]2CC[C@H](NC(=O)c3ccc(N4CCC(CN5CC6(CCc7cc8c(cc7O6)C(=O)N(C6CCC(=O)NC6=O)C8=O)C5)CC4)nn3)CC2)cc1Cl (stereo partly drawn) [Compound 1]"
study_target = "AR protein (Homo sapiens, UniProt P10275, T878A)"
measurement = 44

